Numbers sourced from the Bradley open melting point set (2014).

endpoint_label: melting point (°C)

Would you please look over these solved cases?
Q. Query (compound): O=C(O)C(=Cc1ccccc1)Cc1ccccc1 ; field requested: melting point
A. 158

Q. Query (compound): OB(O)c1ccc(Cl)c(Cl)c1 ; field requested: melting point
A. 272

Q. Query (compound): COc1cc(NS(=O)(=O)c2ccc(N)cc2)nc(OC)n1 ; field requested: melting point
A. 204

(A) Cc1cc(/C=C2\S/C(=N\c3ccccc3)N(c3ccccc3)C2=O)c(C)n1-c1ccc(C(F)(F)F)cc1
(B) CC(C)Cc1ccc(C(C)C(=O)O)cc1 (stereo not given)
Q. # argmax over melting point for candidates A and B Lab note: record the label of whichever item you select.
A. A

====

endpoint_label: melting point (°C)

Would you please look over these solved cases?
Q. Query (compound): ON=C1CCCCC1 ; field requested: melting point
A. 89

Q. Query (compound): CCNCC [N-Ethylethanamine] ; field requested: melting point
A. -50

(1) Cc1ccccc1-c1ccccc1P(C(C)(C)C)C(C)(C)C
(2) CSC1N=NC(N)=C1C#N (stereo not given)
(3) CC(=O)c1ccc(C(F)(F)F)cc1
Q. Please give the order of these compounds when sorted by melting point, largest value leading. // rank by listing labels in the order requested
A. 2, 1, 3
(2: 190 °C, 1: 92 °C, 3: 32 °C)

====

endpoint_label: melting point (°C)

Q. Query (compound): NC(=O)C1c2ccccc2Oc2ccccc21 [xanthene-9-carboxamide] ; field requested: melting point
A. 245

(P) Cc1cccc(B(O)O)c1
(Q) CCCCCCCCCCCCCCCC [N-hexadecane]
(R) Cc1cc(C)c(N=C=O)c(C)c1 [2,4,6-trimethylphenyl isocyanate]
Q. Please give the order of these compounds when sorted by melting point, largest value leading. // rank by listing labels in the order requested
A. P, R, Q

====

endpoint_label: melting point (°C)

Would you please look over these solved cases?
Q. Query (compound): CCOCCO [2-ethoxyethanol] ; field requested: melting point
A. -90

Q. Query (compound): COc1ccc(C=NO)c(OC)c1 ; field requested: melting point
A. 107

Q. Query (compound): CC1=CC(C)=NC2N=NC(N)=C12 (stereo not given) [4,6-Dimethyl-2H-pyrazolo[3,4-b]pyridin-3-amine] ; field requested: melting point
A. 280

Q. Query (compound): O=C(O)c1ccccc1O [Salicyclic acid] ; field requested: melting point
A. 158

Q. Query (compound): O=C(O)CC(O)(CC(=O)O)C(=O)O [citric acid anhydrous] ; field requested: melting point
A. 153

(I) O=Cc1c(F)c(F)c(F)c(F)c1F
(II) OB(O)c1ccccc1
Q. # argmax over melting point for candidates I and II Lab note: record the label of whichever item you select.
A. II
(II: 217 °C, I: 26 °C)

(P) CC(C)Cn1cnc2c(N)nc3ccccc3c21
(Q) NC(=O)c1ccccc1[N+](=O)[O-] [2-nitrobenzamide]
Q. # argmax over melting point for candidates P and Q Lab note: record the label of whichever item you select.
A. P

====

endpoint_label: melting point (°C)

Would you please look over these solved cases?
Q. Query (compound): CC1(C)[C@H]2CC[C@]1(CS(=O)(=O)Cl)C(=O)C2 [(1R)-camphor-10-sulfonyl chloride] ; field requested: melting point
A. 66

Q. Query (compound): NC(=O)c1c(-c2ccccc2)nn(-c2ccccc2)c1N [5-amino-1,3-diphenyl-1H-pyrazole-4-carboxamide] ; field requested: melting point
A. 200

Q. Query (compound): COc1ccc2[nH]c(C)cc2c1 [5-methoxy-2-methylindole] ; field requested: melting point
A. 87

Q. Query (compound): C=C(C)CC(C)(C)C [2,4,4-Trimethylpent-1-ene] ; field requested: melting point
A. -94

Q. Query (compound): C=CCC1(c2ccccc2)C(=O)NC(=O)NC1=O [phenallymal] ; field requested: melting point
A. 156

(I) Cn1c(=O)c2c(ncn2C)n(C)c1=O [Caffeine]
(II) CCCCNC(=O)C(c1cc(OC)cc(OC)c1)N(Cc1ccccc1)C(=O)C#Cc1ccccc1 (stereo not given) [Ugi product 173G (UC)]
(III) O=Cc1cccc(C=O)c1 [Isophthalaldehyde]
(IV) COCCOC [1,2-Dimethoxyethane]
(V) Cc1cccc(C=O)n1 [6-methylpyridine-2-carboxaldehyde]
Q. Please give the order of these compounds when sorted by melting point, largest value leading. // rank by listing labels in the order requested
A. I, II, III, V, IV
(I: 238 °C, II: 138 °C, III: 88.8 °C, V: 31 °C, IV: -58 °C)

(I) COC1=CC(=O)C[C@@H](C)[C@]12Oc1c(Cl)c(OC)cc(OC)c1C2=O [griseofulvin]
(II) COc1cc(/C=C/C(=O)c2ccccc2O)ccc1O [2',4-dihydroxy-3-methoxychalcone]
(III) COC(=O)CC(C)CCC1C(C)(O)CCC2C(C)(C)CCCC21C (stereo not given)
Q. Endpoint returns the given compounds ordered by ascending melting point. // rank by listing labels in the order requested
A. III, II, I

(P) O=C(O)c1ccco1 [furoic acid]
(Q) Nc1ccc(S(=O)(=O)Nc2ccccn2)cc1 [sulfapyridine]
Q. # argmax over melting point for candidates P and Q Lab note: record the label of whichever item you select.
A. Q

(1) O=S(=O)(Nc1cccc(Cl)c1Cl)c1ccccc1 [2,3-dichloro-1-phenylsulfonamidobenzene]
(2) O=C1NC(=O)c2cc([N+](=O)[O-])ccc21 [4-nitrophthalimide]
Q. I'm curious whether 1 or 2 has the smaller melting point number. Which is it? Lab note: record the label of whichever item you select.
A. 1
(1: 114 °C, 2: 202 °C)
